system: human colon carcinoma cells HT-29; experiment: XTT cell proliferation assay, HT-29; assay type: cell-based; conditions: 5 days incubation, read-out: Antiproliferative activity, Colon HT-29
Please note: IC50 exactly at 300 nM is F. Only values below 300 nM get T.

Use the examples below as a reference point.
{"columns": ["COMPOUND", "ASSIGNED CATEGORY"],
 "data": [
  ["FC1(F)Oc2ccc(-c3nc4c5cccnc5c5ncccc5c4[nH]3)cc2O1 [Compound 7]", "F"],
  ["FC1(F)Oc2ccc(-c3nc4c5cccnc5c5ncccc5c4[nH]3)cc2O1 [Compound 1]", "F"],
  ["FC1(F)Oc2ccc(-c3nc4c5cccnc5c5ncccc5c4[nH]3)cc2O1 [Compound 5]", "T"],
  ["FC1(F)Oc2ccc(-c3nc4c5cccnc5c5ncccc5c4[nH]3)cc2O1 [Compound 6]", "T"],
  ["FC1(F)Oc2ccc(-c3nc4c5cccnc5c5ncccc5c4[nH]3)cc2O1 [Compound 8]", "T"]
]}

input: Please state whether IC50 is below 300 nM for FC1(F)Oc2ccc(-c3nc4c5cccnc5c5ncccc5c4[nH]3)cc2O1 [Compound 3]
output: T

* * *

Kindly supply the reported IC50 values for the records listed here.
tested on: human renal cancer cells CAKI-1; experiment: XTT cell proliferation assay, CAKI-1; assay type: cell-based; settings: 5 days incubation, read-out: Antiproliferative activity, Kidney CAKI-1
One number for each entry, in µM.

# annotated cases, reported IC50 shown
{"columns": ["MOLECULE", "IC50, µM"],
 "data": [
  ["FC1(F)Oc2ccc(-c3nc4c5cccnc5c5ncccc5c4[nH]3)cc2O1 [Compound 4]", 0.17],
  ["FC1(F)Oc2ccc(-c3nc4c5cccnc5c5ncccc5c4[nH]3)cc2O1 [Compound 7]", 0.16]
]}

Dear colleague, could you send me IC50 for each of the items below? Thanks.
1. FC1(F)Oc2ccc(-c3nc4c5cccnc5c5ncccc5c4[nH]3)cc2O1 [Compound 1]
2. FC1(F)Oc2ccc(-c3nc4c5cccnc5c5ncccc5c4[nH]3)cc2O1 [Compound 6]

output:
[0.156, 0.03]

* * *

system: brain cancer/tumour cells U87-MG; experiment: XTT cell proliferation assay, U87-MG; format: cell-based, human; settings: 5 days incubation, read-out: Antiproliferative activity, Brain U87-MG
Kindly supply the reported IC50 values for the records listed here.
Numbers only, in nM.

{"columns": ["COMPOUND", "READOUT VALUE"],
 "data": [
  ["FC1(F)Oc2ccc(-c3nc4c5cccnc5c5ncccc5c4[nH]3)cc2O1 [Compound 1]", 190],
  ["FC1(F)Oc2ccc(-c3nc4c5cccnc5c5ncccc5c4[nH]3)cc2O1 [Compound 8]", 190],
  ["FC1(F)Oc2ccc(-c3nc4c5cccnc5c5ncccc5c4[nH]3)cc2O1 [Compound 3]", 154],
  ["FC1(F)Oc2ccc(-c3nc4c5cccnc5c5ncccc5c4[nH]3)cc2O1 [Compound 2]", 180],
  ["FC1(F)Oc2ccc(-c3nc4c5cccnc5c5ncccc5c4[nH]3)cc2O1 [Compound 7]", 40],
  ["FC1(F)Oc2ccc(-c3nc4c5cccnc5c5ncccc5c4[nH]3)cc2O1 [Compound 6]", 180]
]}

Dear colleague, could you send me IC50 for each of the items below? Thanks.
1. FC1(F)Oc2ccc(-c3nc4c5cccnc5c5ncccc5c4[nH]3)cc2O1 [Compound 5]
2. FC1(F)Oc2ccc(-c3nc4c5cccnc5c5ncccc5c4[nH]3)cc2O1 [Compound 4]

output:
[180, 180]
